Data origin: paper PMC6627850

Reported inhibition at 10 µM values for a set of compounds
Molecular target: recombinant PfMQO (Plasmodium falciparum, UniProt C6KT09)
Sequence (C6KT09 entry or part of it): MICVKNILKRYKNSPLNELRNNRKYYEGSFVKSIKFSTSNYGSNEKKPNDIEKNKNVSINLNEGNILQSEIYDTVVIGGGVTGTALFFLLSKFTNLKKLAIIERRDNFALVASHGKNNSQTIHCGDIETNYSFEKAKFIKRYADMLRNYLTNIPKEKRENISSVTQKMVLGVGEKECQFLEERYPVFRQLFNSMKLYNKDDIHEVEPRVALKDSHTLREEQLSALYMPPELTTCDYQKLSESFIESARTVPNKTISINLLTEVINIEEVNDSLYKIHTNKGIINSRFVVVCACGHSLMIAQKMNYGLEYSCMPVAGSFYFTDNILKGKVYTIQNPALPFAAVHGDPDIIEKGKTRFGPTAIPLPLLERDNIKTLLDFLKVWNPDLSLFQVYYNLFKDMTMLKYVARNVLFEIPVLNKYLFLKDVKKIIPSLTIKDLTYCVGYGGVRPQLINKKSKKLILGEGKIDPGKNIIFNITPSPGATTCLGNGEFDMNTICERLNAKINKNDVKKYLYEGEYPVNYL
Test: biochemical
Settings: read-out: Inhibition (%) against recombinant PfMQO
Quantity measured: inhibition at 10 µM (%)

compound="Cc1cc(C)cc(COc2ccc3c(C)c(CCC(=O)O)c(=O)oc3c2C)c1 [MMV676476]" experimental_result=63.2
compound="O=C(NCCc1c[nH]c2ccccc12)c1cc2ccccc2oc1=O [MMV676539]" experimental_result=65.6
compound="COc1ccc(C2=NN(C3CCCCCC3)C(=O)C2(C)C)cc1OCCCCOc1ccc(-c2nnn[nH]2)cc1 [MMV690028]" experimental_result=86.7
compound="COc1ccc(C2=NN(C3CCCCCC3)C(=O)C3CC=CCC23)cc1OCCCCOc1ccc(-c2nn[nH]n2)cc1 (stereo not shown) [MMV690027]" experimental_result=98.2
